- Test system: RARg:RXRa (NR concentration 270 nM, RXRa partner concentration 90 nM)
- METHOD SUMMARY: PBM binding z-score (relative to random genomic background probes); higher = stronger binding; sequences stand for … in GC…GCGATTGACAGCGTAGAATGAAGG
Assign condition met whenever PBM binding z-score does not fall below 4; assign condition not met whenever it does.

SEQUENCE STRING: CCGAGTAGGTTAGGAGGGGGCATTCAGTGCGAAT
ASSIGNED LABEL: condition not met

SEQUENCE STRING: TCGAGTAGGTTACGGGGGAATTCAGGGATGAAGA
ASSIGNED LABEL: condition not met

SEQUENCE STRING: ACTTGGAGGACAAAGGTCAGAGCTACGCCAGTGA
ASSIGNED LABEL: condition met

SEQUENCE STRING: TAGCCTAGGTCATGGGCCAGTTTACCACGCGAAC
ASSIGNED LABEL: condition met

SEQUENCE STRING: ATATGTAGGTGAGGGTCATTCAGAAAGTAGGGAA
ASSIGNED LABEL: condition not met

SEQUENCE STRING: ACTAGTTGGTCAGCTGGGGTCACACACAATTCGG
ASSIGNED LABEL: condition met

SEQUENCE STRING: CTACGTAGGTTAAGGGGGTCATTCAGTTTGAAAG
ASSIGNED LABEL: condition met

SEQUENCE STRING: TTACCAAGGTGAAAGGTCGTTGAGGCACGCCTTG
ASSIGNED LABEL: condition met

SEQUENCE STRING: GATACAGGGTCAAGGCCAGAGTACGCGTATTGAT
ASSIGNED LABEL: condition met

SEQUENCE STRING: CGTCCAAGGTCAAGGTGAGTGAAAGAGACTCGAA
ASSIGNED LABEL: condition met

SEQUENCE STRING: CCTAGTTGGTCAGGAGGCCACACACCGGATATGA
ASSIGNED LABEL: condition not met

SEQUENCE STRING: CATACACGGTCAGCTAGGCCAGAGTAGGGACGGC
ASSIGNED LABEL: condition not met

SEQUENCE STRING: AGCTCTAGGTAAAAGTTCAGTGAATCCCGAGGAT
ASSIGNED LABEL: condition not met

SEQUENCE STRING: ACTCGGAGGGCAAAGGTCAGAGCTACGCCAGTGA
ASSIGNED LABEL: condition met

SEQUENCE STRING: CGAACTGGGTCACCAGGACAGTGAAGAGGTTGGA
ASSIGNED LABEL: condition met

SEQUENCE STRING: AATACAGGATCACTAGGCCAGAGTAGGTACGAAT
ASSIGNED LABEL: condition not met

SEQUENCE STRING: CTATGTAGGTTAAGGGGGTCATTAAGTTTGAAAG
ASSIGNED LABEL: condition met

SEQUENCE STRING: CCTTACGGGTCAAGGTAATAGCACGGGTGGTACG
ASSIGNED LABEL: condition met

SEQUENCE STRING: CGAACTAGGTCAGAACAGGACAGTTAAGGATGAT
ASSIGNED LABEL: condition not met

SEQUENCE STRING: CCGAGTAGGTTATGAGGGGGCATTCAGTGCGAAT
ASSIGNED LABEL: condition not met

SEQUENCE STRING: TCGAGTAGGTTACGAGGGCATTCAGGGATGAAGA
ASSIGNED LABEL: condition not met

SEQUENCE STRING: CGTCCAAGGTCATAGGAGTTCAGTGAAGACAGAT
ASSIGNED LABEL: condition met

SEQUENCE STRING: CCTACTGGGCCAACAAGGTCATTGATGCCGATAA
ASSIGNED LABEL: condition not met

SEQUENCE STRING: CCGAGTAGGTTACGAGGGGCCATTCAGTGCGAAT
ASSIGNED LABEL: condition not met

SEQUENCE STRING: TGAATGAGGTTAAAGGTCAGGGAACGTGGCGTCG
ASSIGNED LABEL: condition met

SEQUENCE STRING: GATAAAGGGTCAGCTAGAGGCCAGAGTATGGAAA
ASSIGNED LABEL: condition met

SEQUENCE STRING: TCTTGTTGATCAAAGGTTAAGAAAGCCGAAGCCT
ASSIGNED LABEL: condition not met

SEQUENCE STRING: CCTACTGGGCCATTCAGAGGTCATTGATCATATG
ASSIGNED LABEL: condition met

SEQUENCE STRING: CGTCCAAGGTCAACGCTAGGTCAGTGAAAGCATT
ASSIGNED LABEL: condition met

SEQUENCE STRING: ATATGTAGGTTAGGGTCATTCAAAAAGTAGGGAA
ASSIGNED LABEL: condition met

SEQUENCE STRING: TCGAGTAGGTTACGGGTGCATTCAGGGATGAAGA
ASSIGNED LABEL: condition not met

SEQUENCE STRING: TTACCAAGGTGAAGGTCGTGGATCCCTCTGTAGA
ASSIGNED LABEL: condition not met

SEQUENCE STRING: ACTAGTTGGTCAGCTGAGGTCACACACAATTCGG
ASSIGNED LABEL: condition met

SEQUENCE STRING: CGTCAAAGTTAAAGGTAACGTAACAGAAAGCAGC
ASSIGNED LABEL: condition not met

SEQUENCE STRING: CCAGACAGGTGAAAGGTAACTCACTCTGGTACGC
ASSIGNED LABEL: condition not met

SEQUENCE STRING: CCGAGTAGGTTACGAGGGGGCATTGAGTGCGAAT
ASSIGNED LABEL: condition not met

SEQUENCE STRING: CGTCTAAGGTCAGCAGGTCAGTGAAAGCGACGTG
ASSIGNED LABEL: condition met

SEQUENCE STRING: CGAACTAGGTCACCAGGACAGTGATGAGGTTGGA
ASSIGNED LABEL: condition met

SEQUENCE STRING: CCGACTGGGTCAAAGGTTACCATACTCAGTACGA
ASSIGNED LABEL: condition met

SEQUENCE STRING: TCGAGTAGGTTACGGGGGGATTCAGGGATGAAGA
ASSIGNED LABEL: condition not met

SEQUENCE STRING: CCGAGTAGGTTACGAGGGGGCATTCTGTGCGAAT
ASSIGNED LABEL: condition not met

SEQUENCE STRING: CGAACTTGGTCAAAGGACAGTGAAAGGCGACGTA
ASSIGNED LABEL: condition not met

SEQUENCE STRING: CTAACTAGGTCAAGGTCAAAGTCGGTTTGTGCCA
ASSIGNED LABEL: condition met

SEQUENCE STRING: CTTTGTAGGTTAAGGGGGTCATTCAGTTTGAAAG
ASSIGNED LABEL: condition met

SEQUENCE STRING: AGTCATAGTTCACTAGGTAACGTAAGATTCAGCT
ASSIGNED LABEL: condition not met

SEQUENCE STRING: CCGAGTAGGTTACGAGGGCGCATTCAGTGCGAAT
ASSIGNED LABEL: condition not met

SEQUENCE STRING: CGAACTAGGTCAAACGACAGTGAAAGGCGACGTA
ASSIGNED LABEL: condition met

SEQUENCE STRING: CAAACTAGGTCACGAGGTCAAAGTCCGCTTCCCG
ASSIGNED LABEL: condition met

Cited source: the supplement of paper PMC6555819
